- system-name: HP2 peptide with PIWI pentamer, N-terminal fluorescein (D. melanogaster)
- protocol: fluorescence polarisation
measurement-name: pKd
Please keep in mind that pKd is minus log10 of the molar concentration; only the number is needed.

Query (binder): HP1a-CSD (residues 131-206), wild type (domain or fragment) EQDTIPVSGSTGFDRGLEAEKILGASDNNGRLTFLIQFKGVDQAEMVPSSVANEKIPRMVIHFYEERLSWYSDNED ; field requested: pKd
6.00
